experiment: chemical genetic growth profiling, strain panel (AID 1159580);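 note: tested at 20 µM; growth read once vehicle control cultures reached saturation at 30 °C; 1 = growth at the plate median or of vehicle wells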; conditions: S. cerevisiae deletion strains, growth OD, locus YJL095W, strain BCK1, stronger effect = lower value
Hit rate of the full screen: of about 5,500 compounds, about 2,000 (36%) were called active. Inconclusive results (about 18%) are left out. Some of the results follow.
parameterMeasured: normalized growth
Answers are plain numbers.

Hi, could you look up normalized growth for each item in my list?
1. NC(=O)c1cccnc1
2. O=C(O)c1ccccc1
3. Cc1cc(/C(N)=N\OC(=O)C(C)(C)C)cc(/C(N)=N\OC(=O)C(C)(C)C)c1

[0.974, 0.893, 0.992]

###

assay: chemical genetic growth profiling, strain panel (AID 1159580);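 note: tested at 20 µM; growth read once vehicle control cultures reached saturation at 30 °C; 1 = growth at the plate median or of vehicle wells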; settings: S. cerevisiae deletion strains, growth OD, locus YER110C, stronger effect = lower value
About 2,000 (36%) of roughly 5,500 compounds were called active. Another 18% or so got no clear call; they are omitted. This is one part of the list.
parameterMeasured: normalized growth
Give bare numbers.

Hi, could you look up normalized growth for each item in my list?
1. CC(=O)Oc1ccc(C(c2ccc(OC(C)=O)cc2)c2ccccn2)cc1
2. CN(C)CCCN1c2ccccc2CCc2ccc(Cl)cc21
3. CN(C)C(=O)Oc1cccc([N+](C)(C)C)c1
4. CC(=O)Oc1cccc(O)c1
5. CC(C)=CCc1c2c(c3occ(-c4ccc(O)c(O)c4)c(=O)c3c1O)C=CC(C)(C)O2
6. CC(=O)N[C@@H](Cc1c[nH]c2ccccc12)C(N)=O
7. CCCc1cc(=O)[nH]c(=S)[nH]1

0.977
0.999
0.991
1.03
0.981
1
0.991

###

experiment: chemical genetic growth profiling, strain panel (AID 1159580);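 note: tested at 20 µM; growth read once vehicle control cultures reached saturation at 30 °C; 1 = growth at the plate median or of vehicle wells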; conditions: S. cerevisiae deletion strains, growth OD, locus YBR136W, strain MEC1
The whole screen tested about 5,500 compounds, of which about 2,000 (36%) were called active. Inconclusive results (about 18%) are left out. No stated cut-off is given here; in the data, active means normalized growth mostly below about 0.91 (no sharp cut-off); inconclusive means no clear call, values can overlap the other calls; inactive means mostly above about 0.92. Some of the results follow.
Hello, when you answer, please use one of the following outcomes: True = active, False = inactive

{"compound": "Clc1ccc(SCc2ccsc2-c2ncns2)cc1", "assignedLabel": "False"}
{"compound": "CSc1sc(C(=O)Sc2ccccc2)cc1S(=O)(=O)C(C)C", "assignedLabel": "False"}
{"compound": "CC(C)(C)c1cc(C(=O)Nc2ccc3c(c2)OCO3)n(Cc2ccc(F)cc2)n1", "assignedLabel": "False"}
{"compound": "Cc1onc(-c2c(Cl)cccc2Cl)c1C(=O)O/N=C(/N)Cc1ccc(C(C)(C)C)cc1", "assignedLabel": "False"}
{"compound": "COC(=O)C1=C(Nc2ccccc2NS(=O)(=O)c2ccc(C(F)(F)F)cc2Cl)CSC1", "assignedLabel": "False"}
{"compound": "COc1c(Br)csc1C(=O)O/N=C(/N)c1cc(C(F)(F)F)cc(C(F)(F)F)c1", "assignedLabel": "False"}
{"compound": "N#CSCC(=O)c1ccccc1", "assignedLabel": "True"}
{"compound": "Clc1ccc(CN2CCN(c3cccc4[nH]ccc34)CC2)cc1Cl", "assignedLabel": "False"}
{"compound": "C#CCSC1=NNC(c2ccccn2)S1 (stereo unspecified)", "assignedLabel": "False"}
{"compound": "O=C(NOC(=O)c1ccccc1)c1ccccc1", "assignedLabel": "True"}

Field: outcome | Entry: `Cc1ccc(-n2cccc2)c(NS(=O)(=O)c2ccc(-c3ccno3)s2)c1` False

Field: outcome | Entry: `O=S(=O)(Nc1ccccc1Oc1ccccc1)c1ccc(-c2ccno2)s1` False

Field: outcome | Entry: O=C(CSC1=NNC(c2ccccn2)S1)Nc1ccccc1 (stereo unspecified) False

Field: outcome | Entry: `Cc1ccc2nc(-c3ccc4c(c3)OCCO4)cn2c1` False

Field: outcome | Entry: `CSc1n[nH]c(-c2cc(C(C)(C)C)oc2C)c1C#N` False

Field: outcome | Entry: `Cc1cc(/C(N)=N\OC(=O)C(C)(C)C)cc(/C(N)=N\OC(=O)C(C)(C)C)c1` False
